Reference source: paper PMC7591920

Peptide text beside a SMILES is read from it.
GST-hTEAD1 (Homo sapiens, UniProt P28347): recorded Kd for assorted compounds
Sequence (P28347 209-426): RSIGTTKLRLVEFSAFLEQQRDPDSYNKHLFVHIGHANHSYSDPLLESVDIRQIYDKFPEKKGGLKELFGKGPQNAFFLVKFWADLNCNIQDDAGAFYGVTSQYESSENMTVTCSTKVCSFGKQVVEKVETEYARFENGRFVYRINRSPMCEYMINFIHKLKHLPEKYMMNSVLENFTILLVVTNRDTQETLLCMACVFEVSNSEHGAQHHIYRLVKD

Observed Kd on GST-hTEAD1 (Homo sapiens, UniProt P28347) for CC[C@H](C)[C@H](NC(=O)[C@H](CO)NC(=O)[C@@H](NC(=O)[C@H](CO)NC(=O)[C@H](CC(N)=O)NC(=O)[C@@H]1CCCN1C(=O)[C@H](C)NC(=O)[C@@H]1CCCN1C(=O)[C@H](CCC(=O)O)NC(=O)[C@@H]1CCCN1C(=O)[C@H](CCC(=O)O)NC(=O)[C@H](CCCCN)NC(C)=O)C(C)C)C(=O)N[C@H](C(=O)NCC(N)=O)[C@@H](C)O [compound 3] (Ac-KEPEPAPNSVSITG-NH2) , please.
> 100 µM

Observed Kd on GST-hTEAD1 (Homo sapiens, UniProt P28347) for CC(=O)N[C@@H](CC(=O)O)C(=O)N1CCC[C@H]1C(=O)N[C@H](C(=O)N[C@H](C(=O)N[C@@H](CCC(=O)O)C(=O)N[C@@H](CCC(=O)O)C(=O)N[C@@H](Cc1c[nH]cn1)C(=O)N[C@@H](Cc1ccccc1)C(=O)N[C@@H](CCCNC(=N)N)C(=O)N[C@@H](CCCNC(=N)N)C(=O)N[C@@H](CO)C(=O)N[C@@H](CC(C)C)C(=O)NCC(=O)N[C@@H](CCCCN)C(=O)N[C@@H](CC(N)=O)C(=O)N[C@@H](Cc1ccc(O)cc1)C(N)=O)C(C)C)C(C)C [compound 2] (Ac-DPVVEEHFRRSLGKNY-NH2) , please.
19.4 µM

Observed Kd on GST-hTEAD1 (Homo sapiens, UniProt P28347) for CC(=O)N[C@@H](CO)C(=O)N[C@H](C(=O)N[C@@H](CC(=O)O)C(=O)N[C@@H](CC(=O)O)C(=O)N[C@@H](Cc1c[nH]cn1)C(=O)N[C@@H](Cc1ccccc1)C(=O)N[C@@H](C)C(=O)N[C@@H](CCCCN)C(=O)N[C@@H](C)C(=O)N[C@@H](CC(C)C)C(=O)NCC(N)=O)C(C)C [compound 5] (Ac-SVDDHFAKALG-NH2) , please.
> 100 µM
